Source of measurements: PubChem BioAssay AID2060912

Exercise: state measured viability, T/C for each of the compounds provided.
system: HUVEC/MSC spheroids viability; test: Human HUVEC/MSC cell line growth inhibition [KRAS2]; conditions: second compound 3 µM; first compound 10 µM; active compounds read low;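 also: percent of DMSO vehicle control luminescence so 100% = untreated viability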
Your answer is read as %, so omit the unit and give the number.

stdin: Give its viability, T/C value. Item: COc1cc2nccc(Oc3ccc(NC(=O)C4(C(=O)Nc5ccc(F)cc5)CC4)cc3)c2cc1OC + C=CC(=O)N1CCN(c2nc(OCC3CCCN3C)nc3c2CCN(c2cccc4cccc(C)c24)C3)CC1CC#N
stdout: 0.35

stdin: Give its viability, T/C value. Item: CC1(C)CCC(CN2CCN(c3ccc(C(=O)NS(=O)(=O)c4ccc(NCC5CCOCC5)c([N+](=O)[O-])c4)c(Oc4cnc5[nH]ccc5c4)c3)CC2)=C(c2ccc(Cl)cc2)C1 + C=CC(=O)N1CCN(c2nc(OCC3CCCN3C)nc3c2CCN(c2cccc4cccc(C)c24)C3)CC1CC#N
stdout: 0.24

---

Exercise: state measured viability, T/C for each of the compounds provided.
tested on: HUVEC/MSC spheroids viability; assay: Human HUVEC/MSC cell line growth inhibition [KRAS2]; conditions: second compound 0.0949 µM; first compound 0.316 µM; active compounds read low;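 also: percent of DMSO vehicle control luminescence so 100% = untreated viability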
Your answer is read as %, so omit the unit and give the number.

stdin: Short answer please: viability, T/C, HUVEC/MSC spheroids viability, entry CC(C)NCC(C(=O)N1CCN(c2ncnc3c2C(C)CC3O)CC1)c1ccc(Cl)cc1 (stereo not given) + C=CC(=O)N1CCN(c2nc(OCC3CCCN3C)nc3c2CCN(c2cccc4cccc(C)c24)C3)CC1CC#N
stdout: 78.2

stdin: Short answer please: viability, T/C, HUVEC/MSC spheroids viability, entry CCNC(=O)CC1N=C(c2ccc(Cl)cc2)c2cc(OC)ccc2-n2c(C)nnc21 (stereo not given) + C=CC(=O)N1CCN(c2nc(OCC3CCCN3C)nc3c2CCN(c2cccc4cccc(C)c24)C3)CC1CC#N
stdout: 78.8

stdin: Short answer please: viability, T/C, HUVEC/MSC spheroids viability, entry CCN1CCN(Cc2ccc(Nc3ncc(F)c(-c4cc(F)c5nc(C)n(C(C)C)c5c4)n3)nc2)CC1 + C=CC(=O)N1CCN(c2nc(OCC3CCCN3C)nc3c2CCN(c2cccc4cccc(C)c24)C3)CC1CC#N
stdout: 113

stdin: Short answer please: viability, T/C, HUVEC/MSC spheroids viability, entry O=C(c1cc(Cc2n[nH]c(=O)c3ccccc23)ccc1F)N1CCN(C(=O)C2CC2)CC1 + C=CC(=O)N1CCN(c2nc(OCC3CCCN3C)nc3c2CCN(c2cccc4cccc(C)c24)C3)CC1CC#N
stdout: 77.2

stdin: Short answer please: viability, T/C, HUVEC/MSC spheroids viability, entry COc1cc(Nc2ncc3c(n2)-c2ccc(Cl)cc2C(c2c(F)cccc2OC)=NC3)ccc1C(=O)O + C=CC(=O)N1CCN(c2nc(OCC3CCCN3C)nc3c2CCN(c2cccc4cccc(C)c24)C3)CC1CC#N
stdout: 98.5

---

system: HUVEC/MSC spheroids viability; test: Human HUVEC/MSC cell line growth inhibition [KRAS2]; conditions: second compound 3.16 µM; first compound 0.00949 µM; active compounds read low;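 also: percent of DMSO vehicle control luminescence so 100% = untreated viability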
ENDPOINT LABEL: viability, T/C (%)
Your answer is read as %, so omit the unit and give the number.

stdin: Give its viability, T/C value. Item: CC(=O)OC12COC1CC(O)C1(C)C(=O)C(O)C3=C(C)C(OC(=O)C(O)C(NC(=O)OC(C)(C)C)c4ccccc4)CC(O)(C(OC(=O)c4ccccc4)C21)C3(C)C (centres undefined) + COc1cc2nc(C)nc(NC(C)c3cc(N)cc(C(F)(F)F)c3)c2cc1OC1CCOC1
stdout: 51.5

stdin: Give its viability, T/C value. Item: CC(=O)OC12COC1CC(O)C1(C)C(=O)C(O)C3=C(C)C(OC(=O)C(O)C(NC(=O)OC(C)(C)C)c4ccccc4)CC(O)(C(OC(=O)c4ccccc4)C21)C3(C)C (centres undefined) + CNCc1ccccc1-c1csc(C(C)Nc2nc(C)nc3cc(OC)c(OC)cc23)c1
stdout: 78.1

stdin: Give its viability, T/C value. Item: CC1COCCN1c1cc(-c2ccnn2C)c2ccnc(-c3ccn[nH]3)c2n1 (centres undefined) + C=CC(=O)N1CCN(c2nc(=O)n(-c3c(C)ccnc3C(C)C)c3nc(-c4c(O)cccc4F)c(F)cc23)C(C)C1
stdout: 103

stdin: Give its viability, T/C value. Item: CC1COCCN1c1cc(-c2ccnn2C)c2ccnc(-c3ccn[nH]3)c2n1 (centres undefined) + CNCc1ccccc1-c1csc(C(C)Nc2nc(C)nc3cc(OC)c(OC)cc23)c1
stdout: 94

stdin: Give its viability, T/C value. Item: CC(=O)OC12COC1CC(O)C1(C)C(=O)C(O)C3=C(C)C(OC(=O)C(O)C(NC(=O)OC(C)(C)C)c4ccccc4)CC(O)(C(OC(=O)c4ccccc4)C21)C3(C)C (centres undefined) + CC1OCC2(CCN(c3cnc(Sc4ccnc(N)c4Cl)c(N)n3)CC2)C1N
stdout: 49.8

stdin: Give its viability, T/C value. Item: CC(=O)OC12COC1CC(O)C1(C)C(=O)C(O)C3=C(C)C(OC(=O)C(O)C(NC(=O)OC(C)(C)C)c4ccccc4)CC(O)(C(OC(=O)c4ccccc4)C21)C3(C)C (centres undefined) + C=CC(=O)N1CCN(c2nc(=O)n(-c3c(C)ccnc3C(C)C)c3nc(-c4c(O)cccc4F)c(F)cc23)C(C)C1
stdout: 66

stdin: Give its viability, T/C value. Item: CC1COCCN1c1cc(-c2ccnn2C)c2ccnc(-c3ccn[nH]3)c2n1 (centres undefined) + COc1cc2nc(C)nc(NC(C)c3cc(N)cc(C(F)(F)F)c3)c2cc1OC1CCOC1
stdout: 79

stdin: Give its viability, T/C value. Item: CC(=O)Nc1cccc(-n2c(=O)n(C3CC3)c(=O)c3c(Nc4ccc(I)cc4F)n(C)c(=O)c(C)c32)c1 + CC1OCC2(CCN(c3cnc(Sc4ccnc(N)c4Cl)c(N)n3)CC2)C1N
stdout: 22.7

stdin: Give its viability, T/C value. Item: CC(=O)Nc1cccc(-n2c(=O)n(C3CC3)c(=O)c3c(Nc4ccc(I)cc4F)n(C)c(=O)c(C)c32)c1 + C=CC(=O)N1CCN(c2nc(=O)n(-c3c(C)ccnc3C(C)C)c3nc(-c4c(O)cccc4F)c(F)cc23)C(C)C1
stdout: 82

---

Exercise: state measured viability, T/C for each of the compounds provided.
test system: HUVEC/MSC spheroids viability; experiment: Human HUVEC/MSC cell line growth inhibition [KRAS2]; conditions: second compound 0.0316 µM; first compound 0.3 µM; active compounds read low;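 also: percent of DMSO vehicle control luminescence so 100% = untreated viability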
Your answer is read as %, so omit the unit and give the number.

stdin: Give its viability, T/C value. Item: CC(=O)OC12COC1CC(O)C1(C)C(=O)C(O)C3=C(C)C(OC(=O)C(O)C(NC(=O)OC(C)(C)C)c4ccccc4)CC(O)(C(OC(=O)c4ccccc4)C21)C3(C)C (stereo not drawn) + CC1OCC2(CCN(c3cnc(Sc4ccnc(N)c4Cl)c(N)n3)CC2)C1N
stdout: 58.4

stdin: Give its viability, T/C value. Item: CC1COCCN1c1cc(-c2ccnn2C)c2ccnc(-c3ccn[nH]3)c2n1 (stereo not drawn) + COc1cc2nc(C)nc(NC(C)c3cc(N)cc(C(F)(F)F)c3)c2cc1OC1CCOC1
stdout: 75.7

stdin: Give its viability, T/C value. Item: CC(=O)OC12COC1CC(O)C1(C)C(=O)C(O)C3=C(C)C(OC(=O)C(O)C(NC(=O)OC(C)(C)C)c4ccccc4)CC(O)(C(OC(=O)c4ccccc4)C21)C3(C)C (stereo not drawn) + CNCc1ccccc1-c1csc(C(C)Nc2nc(C)nc3cc(OC)c(OC)cc23)c1
stdout: 53

---

Exercise: state measured viability, T/C for each of the compounds provided.
System: HUVEC/MSC spheroids viability
Assay: Human HUVEC/MSC cell line growth inhibition [KRAS2];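 also: percent of DMSO vehicle control luminescence so 100% = untreated viability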
Conditions: second compound 0.316 µM; first compound 0.00949 µM; active compounds read low
Description: Multicellular complex tumor spheroid response to RAS pathway inhibitors in combination with a targeted agents in patient-derived cell lines with oncogenic KRAS variants from multiple cancer types A high-throughput screen of multi-cell type tumor spheroids was designed to identify active combinations of targeted small molecules and KRAS pathway inhibitors. […] Compounds. […] If the clinical Cmax for an agent had not been determined, the highest concentration tested was 10 microM. […]

stdin: Short answer please: viability, T/C, HUVEC/MSC spheroids viability, entry CC(=O)Nc1cccc(-n2c(=O)n(C3CC3)c(=O)c3c(Nc4ccc(I)cc4F)n(C)c(=O)c(C)c32)c1 + C=CC(=O)N1CCN(c2nc(=O)n(-c3c(C)ccnc3C(C)C)c3nc(-c4c(O)cccc4F)c(F)cc23)C(C)C1
stdout: 80.3%

stdin: Short answer please: viability, T/C, HUVEC/MSC spheroids viability, entry CC(=O)OC12COC1CC(O)C1(C)C(=O)C(O)C3=C(C)C(OC(=O)C(O)C(NC(=O)OC(C)(C)C)c4ccccc4)CC(O)(C(OC(=O)c4ccccc4)C21)C3(C)C (configuration not stated) + CNCc1ccccc1-c1csc(C(C)Nc2nc(C)nc3cc(OC)c(OC)cc23)c1
stdout: 44.8%

stdin: Short answer please: viability, T/C, HUVEC/MSC spheroids viability, entry CC(=O)OC12COC1CC(O)C1(C)C(=O)C(O)C3=C(C)C(OC(=O)C(O)C(NC(=O)OC(C)(C)C)c4ccccc4)CC(O)(C(OC(=O)c4ccccc4)C21)C3(C)C (configuration not stated) + COc1cc2nc(C)nc(NC(C)c3cc(N)cc(C(F)(F)F)c3)c2cc1OC1CCOC1
stdout: 45.5%

stdin: Short answer please: viability, T/C, HUVEC/MSC spheroids viability, entry CC1COCCN1c1cc(-c2ccnn2C)c2ccnc(-c3ccn[nH]3)c2n1 (configuration not stated) + CC1OCC2(CCN(c3cnc(Sc4ccnc(N)c4Cl)c(N)n3)CC2)C1N
stdout: 105%

stdin: Short answer please: viability, T/C, HUVEC/MSC spheroids viability, entry CC(=O)OC12COC1CC(O)C1(C)C(=O)C(O)C3=C(C)C(OC(=O)C(O)C(NC(=O)OC(C)(C)C)c4ccccc4)CC(O)(C(OC(=O)c4ccccc4)C21)C3(C)C (configuration not stated) + C=CC(=O)N1CCN(c2nc(=O)n(-c3c(C)ccnc3C(C)C)c3nc(-c4c(O)cccc4F)c(F)cc23)C(C)C1
stdout: 54.5%

stdin: Short answer please: viability, T/C, HUVEC/MSC spheroids viability, entry CC1COCCN1c1cc(-c2ccnn2C)c2ccnc(-c3ccn[nH]3)c2n1 (configuration not stated) + C=CC(=O)N1CCN(c2nc(=O)n(-c3c(C)ccnc3C(C)C)c3nc(-c4c(O)cccc4F)c(F)cc23)C(C)C1
stdout: 114%

stdin: Short answer please: viability, T/C, HUVEC/MSC spheroids viability, entry CC(=O)Nc1cccc(-n2c(=O)n(C3CC3)c(=O)c3c(Nc4ccc(I)cc4F)n(C)c(=O)c(C)c32)c1 + CC1OCC2(CCN(c3cnc(Sc4ccnc(N)c4Cl)c(N)n3)CC2)C1N
stdout: 74.5%

stdin: Short answer please: viability, T/C, HUVEC/MSC spheroids viability, entry CC(=O)Nc1cccc(-n2c(=O)n(C3CC3)c(=O)c3c(Nc4ccc(I)cc4F)n(C)c(=O)c(C)c32)c1 + CNCc1ccccc1-c1csc(C(C)Nc2nc(C)nc3cc(OC)c(OC)cc23)c1
stdout: 65.4%

stdin: Short answer please: viability, T/C, HUVEC/MSC spheroids viability, entry CC1COCCN1c1cc(-c2ccnn2C)c2ccnc(-c3ccn[nH]3)c2n1 (configuration not stated) + CNCc1ccccc1-c1csc(C(C)Nc2nc(C)nc3cc(OC)c(OC)cc23)c1
stdout: 97.5%

stdin: Short answer please: viability, T/C, HUVEC/MSC spheroids viability, entry CC1COCCN1c1cc(-c2ccnn2C)c2ccnc(-c3ccn[nH]3)c2n1 (configuration not stated) + COc1cc2nc(C)nc(NC(C)c3cc(N)cc(C(F)(F)F)c3)c2cc1OC1CCOC1
stdout: 82.2%

stdin: Short answer please: viability, T/C, HUVEC/MSC spheroids viability, entry CC(=O)OC12COC1CC(O)C1(C)C(=O)C(O)C3=C(C)C(OC(=O)C(O)C(NC(=O)OC(C)(C)C)c4ccccc4)CC(O)(C(OC(=O)c4ccccc4)C21)C3(C)C (configuration not stated) + CC1OCC2(CCN(c3cnc(Sc4ccnc(N)c4Cl)c(N)n3)CC2)C1N
stdout: 56.1%

stdin: Short answer please: viability, T/C, HUVEC/MSC spheroids viability, entry CC(=O)Nc1cccc(-n2c(=O)n(C3CC3)c(=O)c3c(Nc4ccc(I)cc4F)n(C)c(=O)c(C)c32)c1 + COc1cc2nc(C)nc(NC(C)c3cc(N)cc(C(F)(F)F)c3)c2cc1OC1CCOC1
stdout: 68.8%
